So I've got a bunch of proteins here, and I need their Activity towards hGHQ141N (RFU/sec/µg), dansyl-cadaverine incorporation values.
ASSAYED TARGET: hGHQ141N, P01241
Sequence (P01241 27-217 Q167N): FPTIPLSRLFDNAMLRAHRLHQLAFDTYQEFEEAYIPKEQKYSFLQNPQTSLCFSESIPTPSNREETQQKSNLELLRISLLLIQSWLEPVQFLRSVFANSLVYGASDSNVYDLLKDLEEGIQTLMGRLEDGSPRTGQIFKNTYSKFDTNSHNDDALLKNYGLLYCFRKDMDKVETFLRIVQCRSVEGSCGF
Numeric answer plus unit only.

Looking up AlaPro-mTGase from S. mobaraensis (protein) APDSDDRVTPPAEPLDRMPDPYRPSYGRAETVVNNYIRKWQQVYSHRDGRKQQMTEEQREWLSYGCVGVTWVNSGQYPTNRLAFASFDEDRFKNELKNGRPRSGETRAEFEGRVAKESFDEEKGFQRAREVASVMNRALENAHDESAYLDNLKKELANGNDALRNEDARSPFYSALRNTPSFKERNGGNHDPSRMKAVIYSKHFWSGQDRSSSADKRKYGDPDAFRPAPGTGLVDMSRDRNIPRSPTSPGEGFVNFDYGWFGAQTEADADKTVWTHGNHYHAPNGSLGAMHVYESKFRNWSEGYSDFDRGAYVITFIPKSWNTAPDKVKQGWP , I see its Activity towards hGHQ141N (RFU/sec/µg), dansyl-cadaverine incorporation listed as 1.56 RFU/sec/µg

What the record says about mTGase from S. mobaraensis (protein) DSDDRVTPPAEPLDRMPDPYRPSYGRAETVVNNYIRKWQQVYSHRDGRKQQMTEEQREWLSYGCVGVTWVNSGQYPTNRLAFASFDEDRFKNELKNGRPRSGETRAEFEGRVAKESFDEEKGFQRAREVASVMNRALENAHDESAYLDNLKKELANGNDALRNEDARSPFYSALRNTPSFKERNGGNHDPSRMKAVIYSKHFWSGQDRSSSADKRKYGDPDAFRPAPGTGLVDMSRDRNIPRSPTSPGEGFVNFDYGWFGAQTEADADKTVWTHGNHYHAPNGSLGAMHVYESKFRNWSEGYSDFDRGAYVITFIPKSWNTAPDKVKQGWP : Activity towards hGHQ141N (RFU/sec/µg), dansyl-cadaverine incorporation is 0.98 RFU/sec/µg

Please fill in: Activity towards hGHQ141N (RFU/sec/µg), dansyl-cadaverine incorporation reported for GlyPro-mTGase from S. ladakanum (protein) GPDSDERVTPPAEPLDRMPDPYRPSYGRAETIVNNYIRKWQQVYSHRDGRKQQMTEEQREWLSYGCVGVTWVNSGQYPTNRLAFAFFDEDKYKNELKNGRPRSGETRAEFEGRVAKDSFDEAKGFQRARDVASVMNKALENAHDEGAYLDNLKKELANGNDALRNEDARSPFYSALRNTPSFKDRNGGNHDPSKMKAVIYSKHFWSGQDRSGSSDKRKYGDPEAFRPDRGTGLVDMSRDRNIPRSPTSPGESFVNFDYGWFGAQTEADADKTVWTHGNHYHAPNGSLGAMHVYESKFRNWSDGYSDFDRGAYVVTFVPKSWNTAPDKVKQGWP = 0.48 RFU/sec/µg
